tested on: 4T1; experiment: Antiproliferative activity against mouse 4T1 cells after 48 hrs by MTT assay; assay type: functional, cell-based; conditions: 4T1, 48 h

[
  {
    "COMPOUND": "CC(C)c1ccc(C2C(C#N)=C(N)Oc3c2c(=O)oc2ccccc32)cc1 (stereo not drawn)",
    "TARGET SYSTEM": "4T1",
    "IC50": "> 300 µg/mL"
  },
  {
    "COMPOUND": "N#CC1=C(N)Oc2c(c(=O)oc3ccccc23)C1c1ccc(C#N)cc1 (stereo not drawn)",
    "TARGET SYSTEM": "4T1",
    "IC50": "> 300 µg/mL"
  },
  {
    "COMPOUND": "CC1(C)CC(=O)C2=C(C1)OC(N)=C(C#N)C2c1ccc(S(C)(=O)=O)cc1 (stereo not drawn)",
    "TARGET SYSTEM": "4T1",
    "IC50": "> 300 µg/mL"
  }
]
